Target: JAK1 (Homo sapiens, UniProt P23458)
Construct: 5 μl of catalytic domain recombinant Kinase enzyme+Tyr peptide substrate (Invitrogen, CA)
Sequence (P23458 875-1153 limits assumed): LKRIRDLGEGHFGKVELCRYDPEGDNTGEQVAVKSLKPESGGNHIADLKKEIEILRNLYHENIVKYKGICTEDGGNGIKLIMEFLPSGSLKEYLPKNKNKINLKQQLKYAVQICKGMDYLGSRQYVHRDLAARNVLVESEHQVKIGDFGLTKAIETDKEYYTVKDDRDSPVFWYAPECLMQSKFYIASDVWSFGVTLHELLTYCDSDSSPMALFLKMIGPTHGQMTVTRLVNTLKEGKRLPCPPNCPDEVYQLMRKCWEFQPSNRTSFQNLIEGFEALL
Experiment: Z'-LYTE kinase assay JAK1
Where a name gives a salt, the structure may show the parent alone.
property.measured: IC50

Param readout = IC50; param system = JAK1 (Homo sapiens, UniProt P23458); param query = `COc1ccc(Nc2cc(NCc3cccc4ccsc34)c(C(N)=O)cn2)cc1` ; response: value
> 1 µM

# returns recorded IC50 (system: JAK1 (Homo sapiens, UniProt P23458)) for `CCC(=O)N1CCC(c2ccc(Nc3cc(N[C@H](C)C4CCCCC4)c(C(N)=O)cn3)cc2)CC1`
> 1 µM

Entry `Cc1cc(Nc2cc(NCc3ccccc3)c(C(N)=O)cn2)ccc1C(=O)N1CC=CC1` , system JAK1 (Homo sapiens, UniProt P23458): what IC50 was measured?
0.1 to 1 µM

What measured IC50 is associated with `CN(C)C(=O)Cc1ccc(Nc2cc(NCc3ccccc3)c(C(N)=O)cn2)cc1` on JAK1 (Homo sapiens, UniProt P23458)?
0.1 to 1 µM

# query: IC50 | item C[N+]1(C)CCC(c2ccc(Nc3cc(NCc4cccc(F)c4)c(C(N)=O)cn3)cc2)CC1 [Example 78, formate] | system: JAK1 (Homo sapiens, UniProt P23458)
0.1 to 1 µM

Which measured IC50 belongs to `Cc1cc(Nc2cc(NCc3cccc(F)c3F)c(C(N)=O)cn2)ccc1C(=O)N1CCC1` , tested on JAK1 (Homo sapiens, UniProt P23458)?
0.1 to 1 µM

Request body: readout IC50, system JAK1 (Homo sapiens, UniProt P23458), query `CN(C)C(=O)C1CCN(c2ccc(Nc3cc(NCc4cccc(-c5ccncc5)c4)c(C(N)=O)cn3)cc2)CC1` . Return the value.
> 1 µM

# returns recorded IC50 (system: JAK1 (Homo sapiens, UniProt P23458)) for `NC(=O)c1cnc(Nc2cccc(OCCN3CCCC3)c2)cc1NCc1cccnc1`
0.1 to 1 µM

Which measured IC50 belongs to `CC(=O)Nc1cccc(Nc2nc(NCc3ccccc3)c(C(N)=O)cc2F)c1` , tested on JAK1 (Homo sapiens, UniProt P23458)?
> 1 µM

So what IC50 did `COC(=O)N(C)c1ccc(Nc2cc(NCc3cccc4cc[nH]c34)c(C(N)=O)cn2)cc1` get with JAK1 (Homo sapiens, UniProt P23458)?
> 1 µM

Form field - read-out: IC50; system: JAK1 (Homo sapiens, UniProt P23458); submitted item: `CC(=O)N1CCC[C@H](CNc2cc(Nc3ccc(F)c(C(=O)N4CCC4)c3)ncc2C(N)=O)C1`
> 1 µM

What IC50 appears in the records for this compound with JAK1 (Homo sapiens, UniProt P23458)? `CN(C)C(=O)c1ccc(Nc2cc(NCc3cncc(F)c3)c(C(N)=O)cn2)cc1`
0.1 to 1 µM

Lab note: need IC50 for `COc1ccc(Nc2cc(NCc3cccc4[nH]ccc34)c(C(N)=O)cn2)cc1` on JAK1 (Homo sapiens, UniProt P23458), anyone have it?
0.01 to 0.1 µM

JAK1 (Homo sapiens, UniProt P23458) / IC50 / `NC(=O)c1cnc(Nc2cccc(C3CCOCC3)c2)cc1NCc1cccc(F)c1` : value?
0.1 to 1 µM

GET /values?readout=IC50&system=JAK1 (Homo sapiens, UniProt P23458)&item= `Cc1cc(Nc2cc(NCc3cccc4ccsc34)c(C(N)=O)cn2)ccc1C(=O)N1CCOCC1`
0.1 to 1 µM

Lab note: need IC50 for `NC(=O)c1cnc(Nc2ccc(-n3cccn3)cc2)cc1NCc1ccccc1` on JAK1 (Homo sapiens, UniProt P23458), anyone have it?
> 1 µM

Query the reported IC50 for JAK1 (Homo sapiens, UniProt P23458); item: `CNC(=O)[C@@H]1CCCN(c2ccc(Nc3cc(N[C@H](C)c4ccccc4)c(C(N)=O)cn3)cc2)C1`
0.1 to 1 µM

Notebook entry, JAK1 (Homo sapiens, UniProt P23458) assay: IC50 of `CS(=O)(=O)N1CC(c2ccc(Nc3cc(NCc4ccccc4)c(C(N)=O)cn3)cc2)C1` = ?
0.1 to 1 µM

# value lookup — system JAK1 (Homo sapiens, UniProt P23458), readout IC50, item `NC(=O)c1cnc(Nc2cccc(C3CCNCC3)c2)cc1NCc1ccccc1F`
0.1 to 1 µM

# query: IC50 | item `CCC(=O)N1CCC(c2ccc(Nc3cc(N[C@H](C)C(C)C)c(C(N)=O)cn3)cc2)CC1` | system: JAK1 (Homo sapiens, UniProt P23458)
0.01 to 0.1 µM

GET /values?readout=IC50&system=JAK1 (Homo sapiens, UniProt P23458)&item= `CN(C)C(=O)c1ccc(Nc2cc(NCc3cccc4ccn(C)c34)c(C(N)=O)cn2)cc1`
> 1 µM

Provide value of IC50 for this record tested with JAK1 (Homo sapiens, UniProt P23458): `CC(=O)Nc1ccc(Nc2cc(NCc3cccc(F)n3)c(C(N)=O)cn2)cc1`
0.1 to 1 µM

Under JAK1 (Homo sapiens, UniProt P23458): IC50 value of `COc1ccc(Nc2cc(NCc3cccc(F)c3)c(C(N)=O)cn2)cc1` ?
> 1 µM

So what IC50 did `CCC(=O)N1CCC(c2ccc(Nc3cc(NCc4c(F)cccc4F)c(C(N)=O)cn3)cc2)CC1` get with JAK1 (Homo sapiens, UniProt P23458)?
0.1 to 1 µM

Observed IC50 on JAK1 (Homo sapiens, UniProt P23458) for `COc1ccc(Nc2cc(NCc3ccccc3)c(C(N)=O)cn2)cc1Cl` , please.
> 1 µM

Could you share what IC50 was measured for `COc1ccc(Nc2cc(NCc3c(F)cccc3F)c(C(N)=O)cn2)cc1` , tested on JAK1 (Homo sapiens, UniProt P23458)?
0.1 to 1 µM

Record lookup: for JAK1 (Homo sapiens, UniProt P23458), what IC50 belongs to `NC(=O)c1cnc(Nc2ccc(C(=O)N3CCC3)cc2)cc1NCc1c(F)cccc1F` ?
0.01 to 0.1 µM

Identify the measured IC50 of `COc1ccc(Nc2cc(NCc3cccc4cc[nH]c34)c(C(N)=O)cn2)cc1` for JAK1 (Homo sapiens, UniProt P23458).
> 1 µM

Provide the documented IC50 with JAK1 (Homo sapiens, UniProt P23458) as the system for `CC(=O)Nc1ccc(Nc2cc(NCc3cccc4[nH]ccc34)c(C(N)=O)cn2)cc1`
0.001 to 0.01 µM

Notebook: pull reported IC50 for JAK1 (Homo sapiens, UniProt P23458), entry `CCC(=O)N1CCC(CNc2cc(Nc3ccc(C4CCOCC4)cc3)ncc2C(N)=O)CC1`
> 1 µM

For JAK1 (Homo sapiens, UniProt P23458), provide IC50 of `NC(=O)c1cnc(Nc2cccc(N3CCOCC3)c2)cc1NCc1ccccc1` please.
0.1 to 1 µM

Provide the documented IC50 with JAK1 (Homo sapiens, UniProt P23458) as the system for `NC(=O)c1cnc(Nc2cccc(OCC(=O)N3CCOCC3)c2)cc1NCc1ccccc1`
0.1 to 1 µM

Item: `CN(CC(F)(F)F)C(=O)c1ccc(Nc2cc(NCc3cncc(F)c3)c(C(N)=O)cn2)cc1` Test system: JAK1 (Homo sapiens, UniProt P23458) Read-out: IC50 Value: ?
> 1 µM
